Biological target: Glutaminase kidney isoform, mitochondrial (Homo sapiens)
Sequence (O94925 whole entry): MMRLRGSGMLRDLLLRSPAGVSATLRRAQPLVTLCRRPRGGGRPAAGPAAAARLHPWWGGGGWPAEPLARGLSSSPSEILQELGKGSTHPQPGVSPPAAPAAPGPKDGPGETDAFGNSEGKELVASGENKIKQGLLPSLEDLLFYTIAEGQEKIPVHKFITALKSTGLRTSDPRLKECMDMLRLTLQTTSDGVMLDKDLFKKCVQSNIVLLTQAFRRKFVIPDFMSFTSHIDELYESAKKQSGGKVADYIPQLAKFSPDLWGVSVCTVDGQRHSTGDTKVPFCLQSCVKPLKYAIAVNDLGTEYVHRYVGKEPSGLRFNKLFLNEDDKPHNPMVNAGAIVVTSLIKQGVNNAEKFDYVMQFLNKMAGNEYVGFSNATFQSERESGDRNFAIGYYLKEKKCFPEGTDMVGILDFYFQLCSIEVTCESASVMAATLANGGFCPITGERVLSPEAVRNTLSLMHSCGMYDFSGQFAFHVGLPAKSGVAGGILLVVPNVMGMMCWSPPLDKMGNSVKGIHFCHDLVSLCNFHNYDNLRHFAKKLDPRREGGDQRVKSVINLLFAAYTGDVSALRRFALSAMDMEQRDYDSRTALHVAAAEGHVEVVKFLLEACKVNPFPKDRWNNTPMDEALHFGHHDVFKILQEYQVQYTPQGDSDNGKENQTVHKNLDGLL
Test: Binding affinity to human KGA assessed as dissociation constant
measured.metric: Kd (nM)
Just the number please, in nM, no unit attached.

Req: State its Kd: COc1ccc2[se]n(CCCCCCn3[se]c4ccc(OCCCCC[C@@H]5SC[C@@H]6NC(=O)N[C@@H]65)cc4c3=O)c(=O)c2c1
Resp: 142
